Tested on: SK-OV-3 ovarian
Experiment: NCI tumour cell line growth inhibition, 48 h
I'd be grateful if you could share measured TGI for these entries.

The molecule listed as O=C1C=CC2(O)OC/C(=C\c3ccccc3)C(O)=C2C1=O (centres undefined) has a reported TGI of > 100 µM

// TGI lookup, molecule = O=[N+]([O-])c1ccc(C2CC(c3ccc(NCc4nc5ccccc5[nH]4)cc3)=NO2)cc1 (centres undefined) , result: > 100 µM

// sample O=C1C2c3[nH]c4ccccc4c3C3CCCCC3C2C(=O)N1c1ccccc1 (centres undefined) , its TGI was 52.4 µM

Please fill in: TGI reported for CCC(N)(C(=O)O)C(C)C (centres undefined) = > 100 µM

Looking up `CC(=O)/C=c1\[nH]/c(=C\C=C\c2ccccc2)c(=O)n1/C=C1\C(=O)Oc2ccccc2C1=O` , I found its TGI recorded as > 100 µM

`C[N+](C)(CCNc1ccc(NCC[N+](C)(C)Cc2ccc([N+](=O)[O-])cc2)c2c1C(=O)c1ccccc1C2=O)Cc1ccc([N+](=O)[O-])cc1` yielded TGI of > 100 µM

According to the records, this molecule `O=c1c2ccccc2n2c(-c3ccc(O)cc3)nnc2n1-c1ccccc1` displays TGI of 38.3 µM

Lookup result for `OC(CC(CC(O)(C(F)(F)F)C(F)(F)F)=NN=C(CC(O)(C(F)(F)F)C(F)(F)F)CC(O)(C(F)(F)F)C(F)(F)F)(C(F)(F)F)C(F)(F)F` ; measured TGI: > 10 µM

Lookup result for `C=CCc1cccc2cc(C(=O)NC3CCCCC3)c(=N)oc12` ; measured TGI: > 100 µM

* * *

For each entry below, report its TGI value.
System: UO-31 renal
Test: NCI tumour cell line growth inhibition, 48 h
Express it in µM; write the number only.

Please fill in: TGI reported for `C[CH2][Pb]([CH2]C)([CH2]C)[O]C(=O)COC` = 2.95

# TGI (compound: `CCOC(=O)/C(C#N)=C\C=C(\Sc1nc2ccccc2s1)c1ccc(Cl)cc1` ) is 35.4

* * *

Tested on: TK-10 renal
Experiment: NCI tumour cell line growth inhibition, 48 h
Record form. Attribute: GI50. Fill in for each entry.

# GI50 (molecule: C#CC[C@@H]1C[C@]2(C)[C@H]3CC[C@@H]4[C@H]5C(C(=C)C)CC[C@]5(C(=O)NCCCCN)CC[C@@]4(C)[C@]3(C)CC[C@H]2C(C)(C)[C@H]1OC(C)=O (some centres not stated) ) is 1860 nM

# GI50 (molecule: `COc1cc2cnc3c(c2c(OC)c1OC)Cc1cc2c(cc1-3)OCO2` ) is 752 nM

Measured GI50 of `CC(C)N(CCCNC(=O)Nc1ccc(C(C)(C)C)cc1)C[C@H]1O[C@@H](n2ccc3c(N)ncnc32)[C@H](O)[C@@H]1O` : > 100000 nM

Quick note, GI50 for `CCCN1C/C(=C\c2ccc(O)c(OC)c2)C(=O)/C(=C/c2ccc(O)c(OC)c2)C1` landed at > 100000 nM

For this molecule ( `COc1cccc2c1O/C(=C\c1ncc([N+](=O)[O-])n1C)C2=O` ), measured GI50 is 870 nM

get_value(item= CC(C)N(C(C)C)[PH+]1O[PH+](N(C(C)C)C(C)C)O[PH+](N(C(C)C)C(C)C)O[PH+](N(C(C)C)C(C)C)O1.[C-]#[O+].[C-]#[O+].[C-]#[O+].[C-]#[O+].[C-]#[O+].[C-]#[O+].[C-]#[O+].[C-]#[O+].[Mo].[Mo] (configuration not stated) , readout=GI50) returns > 100000 nM

Summary for this molecule, O=C1C=CC2(O)OC/C(=C\c3ccccc3)C(O)=C2C1=O (configuration not stated) : GI50 is 2990 nM
